B1: PhoQ; a variant is named by its letters at X, in order, P23837 (parent)
chain: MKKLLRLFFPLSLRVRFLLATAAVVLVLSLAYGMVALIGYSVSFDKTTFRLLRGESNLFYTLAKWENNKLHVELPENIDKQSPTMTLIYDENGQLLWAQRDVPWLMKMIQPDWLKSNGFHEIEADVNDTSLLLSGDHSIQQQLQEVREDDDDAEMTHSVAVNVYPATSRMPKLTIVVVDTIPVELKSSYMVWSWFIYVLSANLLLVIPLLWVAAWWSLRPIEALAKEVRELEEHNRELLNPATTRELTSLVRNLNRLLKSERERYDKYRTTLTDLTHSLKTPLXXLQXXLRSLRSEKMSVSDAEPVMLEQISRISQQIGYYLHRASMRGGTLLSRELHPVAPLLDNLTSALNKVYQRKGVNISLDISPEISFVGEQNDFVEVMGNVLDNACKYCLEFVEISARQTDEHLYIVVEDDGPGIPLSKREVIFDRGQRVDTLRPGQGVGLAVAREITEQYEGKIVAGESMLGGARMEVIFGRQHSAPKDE

- Variants of: B1
- ASSAY EXPLANATION: enrichment ratio after two sorts for PhoP signalling (ratio (wild type AVST 3.29)); higher = more functional
- MEASUREMENT CONTEXT: with PhoP (E. coli)
The full ranking holds about 140,000 sequences; the median of “enrichment ratio after two sorts for PhoP signalling” is about 0, and the highest 2% start at about 11. Shown is part of a subset that was picked to be rich in the highest values.
Entries annotated with measured enrichment ratio

The cases that follow already have their enrichment ratio on record.
{"columns": ["MUTATION STRING", "enrichment ratio"],
 "data": [
  ["LILE", "≤ 0.25"],
  ["NTFT", "≤ 0.25"],
  ["PQTM", "≤ 0.25"],
  ["YESG", 0.306],
  ["PLYK", "≤ 0.25"],
  ["TMSN", 12.5],
  ["PTWI", "≤ 0.25"],
  ["TMIM", "≤ 0.25"]
]}

Form: variant = WYYY ; enrichment ratio = ≤ 0.25

FWKT yielded enrichment ratio of ≤ 0.25

# variant LSHR ; its enrichment ratio = ≤ 0.25

Summary for this variant, SHCI : enrichment ratio is 6.63

The reported enrichment ratio of the variant SAFV was ≤ 0.25

Entry HHYP ; enrichment ratio = ≤ 0.25

Entry DMSG ; enrichment ratio = ≤ 0.25

The recorded enrichment ratio for entry PVYK equals ≤ 0.25

The measured enrichment ratio associated with ALVG reads 1.71

For this variant ( TMPM ), measured enrichment ratio is ≤ 0.25

get_value(item= KMSG , readout=enrichment ratio) returns ≤ 0.25

Source: a collection of fitness landscapes (doi:10.1126/science.1257360)
